# TARGET_UNDER_TEST: T1, Mouse PD-L1-Fc (mouse, UniProt Q9EP73 19-239, limits assumed)
# T1 construct: also called murine PD-L1; not shown: Fc
# EXPERIMENT: ForteBio, IgG, avid
Please respond with reported pKd for every item in the list.
When answering, recall that pKd equals minus log10 of the concentration in mol/L, and write that number alone.

Per the record, BiPDL4-44 (antibody, V domains shown, Fourth generation, IgG) VH: QVQLVESGGGVIQPGRSLRLSCAASGFTFSAYLMHWVRQAPGKGLEWVAAIGYDGMNKYYADSVKGRFTISRDNSKNTLYLQMNSLRAEDTAVYYCARAGIEYSYAYTDYWGQGTLVTVSS VL: EIVLTQSPGTLSLSPGERATLSCRASHSVVSSYLAWYQQKPGQAPRLLIYGASSREDGIPDRFSGSGSGTDFTLTISRLEPEDFAVYYCVQFGWWPPRTFGGGTKVEIK has pKd of 9.10

Data point: BiPDL4-34 (antibody, V domains shown, Fourth generation, IgG) VH: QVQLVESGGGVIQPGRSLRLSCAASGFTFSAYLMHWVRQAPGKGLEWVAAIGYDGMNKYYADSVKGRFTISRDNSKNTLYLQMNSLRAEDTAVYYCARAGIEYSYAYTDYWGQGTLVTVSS VL: EIVLTQSPGTLSLSPGERATLSCRASQFVYSSDLAWYQQKPGQAPRLLIYGASARAAGIPDRFSGSGSGTDFTLTISRLEPEDFAVYYCMQFGWWPPRTFGGGTKVEIK ; pKd = 9.26

GET /value?item= BiPDL4-24 (antibody, V domains shown, Fourth generation, IgG) VH: QVQLVESGGGVVQPGRSLRLSCAASGFTFDEYGMHWVRQAPGKGLEWVAVIGYDGLNKYYADSVKGRFTISRDNSKNTLYLQMNSLRAEDTAVYYCARAGIEYSYAYTDYWGQGTLVTVSS VL: EIVLTQSPGTLSLSPGERATLSCRASNSVVSSYLAWYQQKPGQAPRLLIYGAASRANGIPDRFSGSGSGTDFTLTISRLEPEDFAVYYCVQFGWWPPRTFGGGTKVEIK &field=pKd returns 9.17

The reported value for BiPDL4-14 (antibody, V domains shown, Fourth generation, IgG) VH: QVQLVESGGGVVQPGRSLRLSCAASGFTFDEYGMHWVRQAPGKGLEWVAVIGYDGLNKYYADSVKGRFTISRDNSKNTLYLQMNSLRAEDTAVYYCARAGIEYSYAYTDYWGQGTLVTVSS VL: EIVLTQSPGTLSLSPGERATLSCRASQFVYSSDLAWYQQKPGQAPRLLIYGASTRKTGIPDRFSGSGSGTDFTLTISRLEPEDFAVYYCLQFGWWPPRTFGGGTKVEIK in terms of pKd is 9.40
